target: Melatonin receptor type 1A (Homo sapiens, UniProt P48039); test: Agonist activity at human MT1 expressed in CHO cell membrane incubated for 1 hr by [35S]GTPgammaS binding assay
Sequence (P48039 whole entry): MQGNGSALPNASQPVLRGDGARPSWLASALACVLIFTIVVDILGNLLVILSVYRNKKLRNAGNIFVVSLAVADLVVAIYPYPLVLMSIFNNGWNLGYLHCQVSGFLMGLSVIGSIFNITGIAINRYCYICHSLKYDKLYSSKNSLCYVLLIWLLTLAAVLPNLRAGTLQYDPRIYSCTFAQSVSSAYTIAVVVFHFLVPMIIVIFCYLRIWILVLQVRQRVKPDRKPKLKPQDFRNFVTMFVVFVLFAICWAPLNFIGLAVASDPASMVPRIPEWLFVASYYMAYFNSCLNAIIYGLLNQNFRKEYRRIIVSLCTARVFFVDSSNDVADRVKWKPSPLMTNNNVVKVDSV
OUTCOME MEASURE: pEC50
The meaning of pEC50 here: minus log10 of the concentration in molar units.

For record CCC(=O)NCCc1ncnc2ccc(OC)cc12 the listed pEC50 is 6.36

Noted for CCCC(=O)NCCc1ncnc2ccc(OC)cc12 : its pEC50 reads 6.19

For COc1ccc2ncnc(CCNC(C)=O)c2c1 the compound record lists pEC50 as 5.59

Query COc1cccc(-c2nc(CCNC(C)=O)c3cc(OC)ccc3n2)c1 yields pEC50 of 6.49
